Provide the reported protein stability index of each item.
- Method Notes: protein stability index of a GFP-peptide fusion (GPS, HEK-293T) (PSI 1-6); higher = more stable;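 further: 24-mer peptide tiles fused after GFP, lentivirally expressed, FACS-sorted into six equal bins by GFP/DsRed ratio, decoded by Illumina sequencing, PSI is the read-weighted mean bin number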
- Measurement Setup: treatment: DMSO; c terminus: a fixed tail appended
Answers are plain numbers.

Some solved cases for reference:
Could you tell me which protein stability index is on file for EEAEWESINVLLMMHGLKPLSLVK [CEP70] ?
2.36

Could you tell me which protein stability index is on file for VRYNRVGILRRILRTLRDFPAEER [ANKRD9] ?
2.4

Working through the 4 sequences below one at a time, give protein stability index for each.
1. ARGDAVCTACGSVLEDNIIVSEVQ [BRF1]
2. YQILTLEKDQEQVVMNLDSRLLIF [GMCL1]
3. RSSPDDLKALTRNVNRLNESFRDL [SCARA5]
4. ELAEATWCGISTDMWRSENQNRAY [ZBED1]

1. 4.38
2. 2.77
3. 3.95
4. 2.84

Working through the 4 sequences below one at a time, give protein stability index for each.
1. HAACLKCAECSQYLDETCTCFVRD [ISL2]
2. SNVRGSLNVNLNSVVLRRARGGAV [DUSP5]
3. RTCTAPLDRLKVLMQVHASRSNNM [SLC25A25]
4. DLPPPPADPVLDLPLPPPPPEPLS [APBB1IP]

1. 4.67
2. 3.74
3. 2.68
4. 5.39

Working through the 2 sequences below one at a time, give protein stability index for each.
1. SGPEGNLNQIVTEPDANFPQFLHE [FAM104B]
2. PECGEIFAHSSNLLRHQRIHTGER [ZNF263]

4.81
3.88

---

- Method Notes: protein stability index of a GFP-peptide fusion (GPS, HEK-293T) (PSI 1-6); higher = more stable
- Measurement Setup: treatment: MLN4924 1 uM, 8 h; c terminus: a fixed tail appended
I would appreciate it if you labelled entries fulfilled when protein stability index is 3 or higher, otherwise not fulfilled.

Check out these entries, answers already filled in.
I'd appreciate it if you could say whether NYMKILLKVGGILVMPIEDQLTQI [PCMTD1] has protein stability index at least equal to 3.
not fulfilled

I'd appreciate it if you could say whether FSQKHFPEVVQHEEFILLSQGEVE [KLHL12] has protein stability index at least equal to 3.
fulfilled

I'd appreciate it if you could say whether LDKLNFEAINFCRGLGSQASTVTE [ACSBG2] has protein stability index at least equal to 3.
fulfilled

# next sequence below
I'd appreciate it if you could say whether GMANGQQWLQSTSGSQRHMVGQKD [TLE6] has protein stability index at least equal to 3.
fulfilled

---

Provide the reported protein stability index of each item.
- Method Notes: protein stability index of a GFP-peptide fusion (GPS, HEK-293T) (PSI 1-6); higher = more stable
- Measurement Setup: treatment: DMSO; c terminus: a fixed tail appended
Give bare numbers.

Could you tell me which protein stability index is on file for AYMGHLDVVALLINHGAEVTCKDK [ANKRD44] ?
2.23

Could you tell me which protein stability index is on file for SQLSMKAGLENTVAETECRYALQL [KRT13] ?
3.37

Could you tell me which protein stability index is on file for PGSLLCTVAASDPDTGDNARLTYS [PCDHGC5] ?
4.12

Could you tell me which protein stability index is on file for TWMLEVCEEQKCEEEVFPLAMNYL [CCND2] ?
2.84

Working through the 3 sequences below one at a time, give protein stability index for each.
1. TSLGLTYDGMLSDVQSMPKTGILI [MAGEA10]
2. GHLRGPEIRDWRGPQLEGEKDWGL [ZSWIM9]
3. LVSLTSRNPDQRKESLCISITVSK [FBXO34]

1: 1.93; 2: 3.66; 3: 2.26

Working through the 3 sequences below one at a time, give protein stability index for each.
1. VSGINHDVTSGDHGDYFRLLLPGI [CPN1]
2. GMANGQQWLQSTSGSQRHMVGQKD [TLE6]
3. DPCVISQEIMEKYNIKLKWTNQQK [CFHR2]

[2.46, 4.49, 3.19]

Working through the 3 sequences below one at a time, give protein stability index for each.
1. HHSHSGPEISRIIVDPTTGKRYCR [PLK2]
2. NIRSARGNNPNGREAKMICFKSVA [ELOA2]
3. RPAFVRVRRGHSHLAPSEAKAADS

1. 4.08
2. 3.4
3. 4.35

---

- Method Notes: protein stability index of a GFP-peptide fusion (GPS, HEK-293T) (PSI 1-6); higher = more stable
- Measurement Setup: treatment: MLN4924 1 uM, 8 h; c terminus: a fixed tail appended
I would appreciate it if you labelled entries 1 (yes) when protein stability index is 3 or higher, otherwise 0 (no).

I'd appreciate it if you could say whether QVNRRSAKGNTALHDCAESGSLEI [FEM1A] has protein stability index at least equal to 3.
1 (yes)

I'd appreciate it if you could say whether IENNKYGWFWVCPGGGDICMYRHA [ZC3H15] has protein stability index at least equal to 3.
0 (no)

I'd appreciate it if you could say whether LKVRYRERITILRGNHESRQITQV [PPP2CA] has protein stability index at least equal to 3.
0 (no)

I'd appreciate it if you could say whether NQTALHLAAAHGHSEVVEELVSAD [RIPK4] has protein stability index at least equal to 3.
1 (yes)

I'd appreciate it if you could say whether SASSPASVGDPCGGAICGGPDHRL [SLC25A25] has protein stability index at least equal to 3.
1 (yes)

I'd appreciate it if you could say whether ERSQEESPPGSTKRRKSMSGASPK [CDC25A] has protein stability index at least equal to 3.
1 (yes)

I'd appreciate it if you could say whether APDGSYFAWSQGHRTVKLVPWSQC [WSB1] has protein stability index at least equal to 3.
0 (no)

---

- Method Notes: protein stability index of a GFP-peptide fusion (GPS, HEK-293T) (PSI 1-6); higher = more stable
- Measurement Setup: treatment: MLN4924 1 uM, 8 h; c terminus: a fixed tail appended
Provide the reported protein stability index of each item.
Numbers only.

Some solved cases for reference:
Could you tell me which protein stability index is on file for VTAEVDLFGDAFAASPGEAPAASE [SNAP91] ?
5.02

Could you tell me which protein stability index is on file for KEYEKALKYVRGLLQTEPQNNQAK [FIS1] ?
3

Could you tell me which protein stability index is on file for PIEVVTEGLLNTYQELLGLSFEQM [NLN] ?
2.29

Could you tell me which protein stability index is on file for VFWPQLPNGLEAAYEFADRDEVRF [MMP1] ?
3.1

Could you tell me which protein stability index is on file for AATPRTNSVISVCSSSNLAGNDDS [DLC1] ?
5.17

Working through the 2 sequences below one at a time, give protein stability index for each.
1. HCKAGLGRTGTLIACYVMKHYRFT [CDC14A]
2. ITCSSTMSYSCCLPSLGCRTSCSS [KRT34]

1: 2.76; 2: 2.1

Working through the 2 sequences below one at a time, give protein stability index for each.
1. VTLNFNVPGEFKQDVTVVGSAGRL [GFOD1]
2. EGCKSFFKRSVRRNLSYTCRANRN [NR2F2]

[2.15, 3.52]

Working through the 6 sequences below one at a time, give protein stability index for each.
1. CAKMEKDGYGMTPLLSASVTGHTN [FEM1C]
2. PTTSFLSISKLSPFSEFFKLRFNR [PWWP2B]
3. TQSWSSQSSFNSLQRVPSYDSFDS [ETS1]
4. DRKLHSRPRKLYKHSSTSSRIAKG [BTBD10]
5. VQLQRIPLSAVYRICLGKFTFPGM [TPRG1]
6. IQLIKTNKKHIHSRSTLECAYRTH [SMG5]

3.55
2.13
3.98
3.79
2.21
2.54

Working through the 3 sequences below one at a time, give protein stability index for each.
1. SRVLLSAIEGIPGSDYVNANYIDG [PTPRD]
2. LKSAKDLPPDALIIEYRGKFMLRE [KMT2E]
3. YCKTSDGRVVPESQCQMETKPLAI [ADAMTSL2]

1. 3.73
2. 2.38
3. 4.32

---

- Method Notes: protein stability index of a GFP-peptide fusion (GPS, HEK-293T) (PSI 1-6); higher = more stable
- Measurement Setup: treatment: DMSO; c terminus: a fixed tail appended
Provide the reported protein stability index of each item.
Answers are plain numbers.

Some solved cases for reference:
Could you tell me which protein stability index is on file for PNCFRKDPDINMHPFFFALGKILS [FADS1] ?
2.1

Could you tell me which protein stability index is on file for RDSESTRHDSETEDMLWDDLLHGP [PHTF1] ?
5.49

Could you tell me which protein stability index is on file for LVTGLAIEEACYAQTIPTKDRLEG [AUH] ?
3.02

Could you tell me which protein stability index is on file for QEAMFNMATLNRTAAGLMHTFNAH [SEPHS2] ?
2.44

Could you tell me which protein stability index is on file for KQNPSRQEVTKLQQQVKTNGAGVT [FBXO28] ?
4.68

Could you tell me which protein stability index is on file for AEEYRLKEHYLTFEKSRYETYIHL [PSD2] ?
1.93

Working through the 7 sequences below one at a time, give protein stability index for each.
1. HNIFLLGGSSTSERCLLNNSLWKK [NLN]
2. LEAGADQEHKTDEMHTALMEACMD [ANKRD17]
3. WEPRRDMWVRFRAFEAARDLDACA [ZSWIM9]
4. LPSHPLELSEKNFQLNQDKMNFST [POMP]
5. QFLLELLSDKSCQSFISWTGDGWE [ETS2]
6. FVAFALCMFCLYSFMPLVIKVTSA [SLC35F2]
7. RRHRLGGVGAVPGPGTPTGPSLPS [ZBTB22]

1: 2.39; 2: 5.52; 3: 2.79; 4: 3.84; 5: 1.83; 6: 3.2; 7: 4.25
